B1: Azoarcus group I ribozyme (parent)
chain: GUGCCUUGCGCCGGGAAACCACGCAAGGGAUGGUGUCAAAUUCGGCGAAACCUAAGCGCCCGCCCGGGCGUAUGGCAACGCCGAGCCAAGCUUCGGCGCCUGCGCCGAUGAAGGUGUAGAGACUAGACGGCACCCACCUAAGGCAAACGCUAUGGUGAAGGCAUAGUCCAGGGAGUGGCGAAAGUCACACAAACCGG

Variants of: B1
Assay: reverse-splicing fitness (ratio to wild type); higher = more active; in vitro selection; Mg2+ level not given
Threshold check on reverse-splicing fitness: at or above 0.01 gives 1, strictly below gives -1.

mutantDesignation	category
C82A A111G C150G C169U	1
C82U A111G A120U A145C C150U U176C	-1
C82G A111G A120C A145C C150G C169U U176C	1
C82G A120G C150A U176G	1
C82G A111G A120G A145U	1
A111U A145C C150A C169U U176G	-1

Input: Check the entry A120U A145C C150G C169A U176C : does reverse-splicing fitness equal or exceed 0.01?
Output: -1

Input: Check the entry C82U A111G A145C C150U U176C : does reverse-splicing fitness equal or exceed 0.01?
Output: 1
